B1: ZNF193 (parent)
chain: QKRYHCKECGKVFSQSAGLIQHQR

# Variants of: B1
# Assay Info: protein stability index of a GFP-peptide fusion (GPS, HEK-293T) (PSI 1-6); higher = more stable;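 also: lentivirally expressed fusions sorted by FACS into six bins by GFP to DsRed ratio, PSI derived from sequencing read proportions per bin multiplied by bin number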
# Assay Context: c terminus: a fixed tail appended
If the reported protein stability index equals or exceeds 3, assign met. If not, assign not met.

Problem: Given the entry R3Q , answer whether its protein stability index meets or surpasses 3.
Result: met

Problem: Given the entry A17R , answer whether its protein stability index meets or surpasses 3.
Result: met

Problem: Given the entry E8F , answer whether its protein stability index meets or surpasses 3.
Result: not met

Problem: Given the entry V12K , answer whether its protein stability index meets or surpasses 3.
Result: met

Problem: Given the entry Q15W , answer whether its protein stability index meets or surpasses 3.
Result: not met

Problem: Given the entry R24I , answer whether its protein stability index meets or surpasses 3.
Result: not met

Problem: Given the entry A17W , answer whether its protein stability index meets or surpasses 3.
Result: not met

Problem: Given the entry K7E , answer whether its protein stability index meets or surpasses 3.
Result: met
